From: patent US11524938B2

Molecular target: UniProt:Q99571
Assay: Human P2X4 HEK Cell FLIPR Assay
Type: cell-based
Conditions: HEK293, HEK293 cells, agonist Bz-ATP at EC80; percentage of maximal inhibition; read-out: Human P2X4 HEK Cells (FLIPR Assay) avg Efficacy [%]
experimentalReadout: Emax (%)

[
  {
    "smilesData": "NS(=O)(=O)c1cc(NC(=O)Cc2ccccc2F)ccc1-n1cnc(C2CC2)c1",
    "recordedMeasurement": 96
  },
  {
    "smilesData": "NS(=O)(=O)c1cc(NC(=O)Cc2ccc(Cl)cc2Cl)ccc1-n1cc(C(F)(F)F)nn1",
    "recordedMeasurement": 68
  },
  {
    "smilesData": "NS(=O)(=O)c1cc(NC(=O)Cc2ccccc2[N+](=O)[O-])ccc1-n1cc(Cl)cn1",
    "recordedMeasurement": 97
  },
  {
    "smilesData": "CN(C)CCNC(=O)c1cccc(-c2ccc(NC(=O)Cc3ccccc3Cl)cc2S(N)(=O)=O)c1",
    "recordedMeasurement": 77
  },
  {
    "smilesData": "N#Cc1cnn(-c2ncc(NC(=O)Cc3ccccc3F)cc2S(N)(=O)=O)c1",
    "recordedMeasurement": 87
  },
  {
    "smilesData": "CC(C)c1ccccc1CC(=O)Nc1ccc(-n2cc(F)cn2)c(S(N)(=O)=O)c1",
    "recordedMeasurement": 94
  },
  {
    "smilesData": "NS(=O)(=O)c1cc(NC(=O)Cc2ccccc2Cl)ccc1-c1cnc(C2CC2)o1",
    "recordedMeasurement": 94
  },
  {
    "smilesData": "NS(=O)(=O)c1cc(NC(=O)Cc2ccccc2Cl)ccc1-n1cc(-c2cnccn2)cn1",
    "recordedMeasurement": 82
  }
]

###

Biological target: human P2X4 (Homo sapiens, UniProt Q99571)
Sequence (Q99571 whole entry): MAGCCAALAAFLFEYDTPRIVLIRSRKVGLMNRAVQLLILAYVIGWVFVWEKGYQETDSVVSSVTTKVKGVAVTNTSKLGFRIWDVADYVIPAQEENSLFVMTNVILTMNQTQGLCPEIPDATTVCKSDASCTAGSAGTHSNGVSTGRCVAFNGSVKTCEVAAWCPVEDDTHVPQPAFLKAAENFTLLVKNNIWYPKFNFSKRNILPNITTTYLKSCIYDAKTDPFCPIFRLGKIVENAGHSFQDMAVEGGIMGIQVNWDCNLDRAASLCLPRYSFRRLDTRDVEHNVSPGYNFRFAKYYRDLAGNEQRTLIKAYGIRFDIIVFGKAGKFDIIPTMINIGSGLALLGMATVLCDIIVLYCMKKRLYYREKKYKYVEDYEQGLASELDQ
Assay: Human P2X4 HEK Cell FLIPR Assay
Format: cell-based
Details: HEK293, HEK293 cells, agonist Bz-ATP at EC80; percentage of maximal inhibition; read-out: Human P2X4 HEK Cells (FLIPR Assay) avg Efficacy [%]
experimentalReadout: Emax (%)

[
  {
    "smilesData": "NS(=O)(=O)c1cc(NC(=O)Cc2ccccc2F)ccc1-n1cnc(C(F)(F)F)n1",
    "targetOfAssay": "human P2X4 (Homo sapiens, UniProt Q99571)",
    "unitAbbreviation": "%",
    "Emax": 75
  },
  {
    "smilesData": "COc1cnc(Cl)c(-c2ccc(NC(=O)Cc3ccccc3Cl)cc2S(N)(=O)=O)c1",
    "targetOfAssay": "human P2X4 (Homo sapiens, UniProt Q99571)",
    "unitAbbreviation": "%",
    "Emax": 81
  },
  {
    "smilesData": "CCCNc1ncc(-c2ccc(NC(=O)Cc3ccccc3Cl)cc2S(N)(=O)=O)cn1",
    "targetOfAssay": "human P2X4 (Homo sapiens, UniProt Q99571)",
    "unitAbbreviation": "%",
    "Emax": 83
  },
  {
    "smilesData": "NS(=O)(=O)c1cc(NC(=O)Cc2cc(F)c(F)cc2Cl)ccc1-n1cc(Cl)cn1",
    "targetOfAssay": "human P2X4 (Homo sapiens, UniProt Q99571)",
    "unitAbbreviation": "%",
    "Emax": 73
  },
  {
    "smilesData": "NS(=O)(=O)c1cc(NC(=O)Cc2ccccc2OC(F)(F)F)ccc1-c1cncc(C(F)(F)F)c1",
    "targetOfAssay": "human P2X4 (Homo sapiens, UniProt Q99571)",
    "unitAbbreviation": "%",
    "Emax": 83
  },
  {
    "smilesData": "CC(C)(O)Cn1cc(-c2ccc(NC(=O)Cc3ccccc3Cl)cc2S(N)(=O)=O)cn1",
    "targetOfAssay": "human P2X4 (Homo sapiens, UniProt Q99571)",
    "unitAbbreviation": "%",
    "Emax": 76
  },
  {
    "smilesData": "NS(=O)(=O)c1cc(NC(=O)Cc2ccccc2Cl)ccc1-c1cncs1",
    "targetOfAssay": "human P2X4 (Homo sapiens, UniProt Q99571)",
    "unitAbbreviation": "%",
    "Emax": 91
  },
  {
    "smilesData": "NS(=O)(=O)c1cc(NC(=O)Cc2cccc(C(F)(F)F)c2Cl)ccc1-c1cnn(C(F)F)c1",
    "targetOfAssay": "human P2X4 (Homo sapiens, UniProt Q99571)",
    "unitAbbreviation": "%",
    "Emax": 95
  }
]
